- target-or-system: human NaV1.3 (Homo sapiens)
- Sequence (Q9NY46 whole entry): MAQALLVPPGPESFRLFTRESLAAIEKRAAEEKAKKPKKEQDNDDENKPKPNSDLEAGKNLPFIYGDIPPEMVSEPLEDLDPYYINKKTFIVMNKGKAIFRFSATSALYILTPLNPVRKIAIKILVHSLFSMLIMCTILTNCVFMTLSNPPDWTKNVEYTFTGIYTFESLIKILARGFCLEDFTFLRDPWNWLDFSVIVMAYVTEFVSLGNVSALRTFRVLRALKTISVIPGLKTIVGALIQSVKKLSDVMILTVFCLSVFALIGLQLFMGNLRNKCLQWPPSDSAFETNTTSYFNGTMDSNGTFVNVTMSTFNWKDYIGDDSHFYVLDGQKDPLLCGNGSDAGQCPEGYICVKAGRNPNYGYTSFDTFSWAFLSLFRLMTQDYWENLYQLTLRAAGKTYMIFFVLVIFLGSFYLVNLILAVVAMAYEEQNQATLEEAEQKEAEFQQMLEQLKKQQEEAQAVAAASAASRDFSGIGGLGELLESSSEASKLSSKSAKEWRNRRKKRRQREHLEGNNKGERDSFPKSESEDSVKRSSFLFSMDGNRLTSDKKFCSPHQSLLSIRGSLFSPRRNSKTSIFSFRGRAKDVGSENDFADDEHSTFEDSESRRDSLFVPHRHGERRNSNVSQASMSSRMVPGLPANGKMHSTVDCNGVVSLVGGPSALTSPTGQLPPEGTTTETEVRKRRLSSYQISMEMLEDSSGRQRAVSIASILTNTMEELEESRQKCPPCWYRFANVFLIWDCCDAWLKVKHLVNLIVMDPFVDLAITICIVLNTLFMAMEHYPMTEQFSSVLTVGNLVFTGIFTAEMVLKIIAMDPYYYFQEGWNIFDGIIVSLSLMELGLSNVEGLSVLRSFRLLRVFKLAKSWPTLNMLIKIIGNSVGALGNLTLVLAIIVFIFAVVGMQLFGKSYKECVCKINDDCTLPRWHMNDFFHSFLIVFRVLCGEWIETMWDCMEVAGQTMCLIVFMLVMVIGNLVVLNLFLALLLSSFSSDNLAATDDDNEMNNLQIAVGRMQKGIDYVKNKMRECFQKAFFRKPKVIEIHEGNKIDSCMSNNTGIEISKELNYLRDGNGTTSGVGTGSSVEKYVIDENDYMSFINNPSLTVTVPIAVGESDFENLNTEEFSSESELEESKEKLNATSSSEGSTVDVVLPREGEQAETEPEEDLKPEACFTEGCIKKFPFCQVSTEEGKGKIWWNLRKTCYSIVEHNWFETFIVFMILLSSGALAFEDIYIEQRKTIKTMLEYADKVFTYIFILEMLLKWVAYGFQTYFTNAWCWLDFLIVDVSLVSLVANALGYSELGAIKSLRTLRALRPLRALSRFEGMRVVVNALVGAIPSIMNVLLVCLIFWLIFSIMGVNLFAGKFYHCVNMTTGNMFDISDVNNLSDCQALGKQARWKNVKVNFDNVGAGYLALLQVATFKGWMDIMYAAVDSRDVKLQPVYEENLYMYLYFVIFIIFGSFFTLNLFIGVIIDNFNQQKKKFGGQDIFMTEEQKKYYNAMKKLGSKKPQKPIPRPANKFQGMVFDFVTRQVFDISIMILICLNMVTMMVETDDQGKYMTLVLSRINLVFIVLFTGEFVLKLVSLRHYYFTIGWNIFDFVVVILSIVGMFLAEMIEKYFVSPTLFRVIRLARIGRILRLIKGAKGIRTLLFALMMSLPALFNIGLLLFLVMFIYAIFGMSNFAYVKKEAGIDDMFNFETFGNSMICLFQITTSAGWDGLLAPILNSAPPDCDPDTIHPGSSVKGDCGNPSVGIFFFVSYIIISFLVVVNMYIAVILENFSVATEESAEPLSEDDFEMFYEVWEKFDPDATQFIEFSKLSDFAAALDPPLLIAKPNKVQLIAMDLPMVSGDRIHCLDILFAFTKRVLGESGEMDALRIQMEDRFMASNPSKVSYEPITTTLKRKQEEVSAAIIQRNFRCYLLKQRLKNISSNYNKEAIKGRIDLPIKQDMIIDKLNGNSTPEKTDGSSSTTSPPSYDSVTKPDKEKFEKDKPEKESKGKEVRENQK
- test-details: FRET assay (EFS, FDSS) on HEK293 cells expressing human NaV1.3 channels
- condition-details: FRET assay, HEK293 cells expressing human NaV1.3; read-out: IC50 against Nav1.3
- Procedure: This screen was used to determine the effects of compounds on human NaV1.3, human Nav1.7, and human Nav1.5 channels, utilising electrical field stimulation (EFS) system in 96-well plate format on FDSS (Hamamatsu Photonics) platform. The change of membrane potential was monitored with FRET dye pair, oxonol (DiSBAC2(3)) and coumarin (CC2-DMPE). […] The data were analyzed and reported as normalized ratios of intensities measured at 440 nm. […]
pIC50: −log10 of the molar value.
pIC50 by entry:

# annotated cases, reported pIC50 shown
[[record]]
compound = "CC(C)COc1cc(N2CCN(C(=O)CNC(=O)c3ccc(OCC(F)(F)F)nc3)CC2)ncn1 [Example 74]"
measurement = "> 5.52"

[[record]]
compound = "CCn1nc(C(=O)N2CCN(c3cc(OCC(F)(F)F)ncn3)CC2)cc1C(F)(F)F [Example 229]"
measurement = "> 5.52"

[[record]]
compound = "Cc1ccc(C(=O)N2CCN(c3cc(OC4CCCC4)ncn3)CC2)cc1F [Example 7]"
measurement = "> 5.52"

[[record]]
compound = "CC(C)COc1cc(N2CCN(C(=O)c3cc4ccccc4s3)CC2)ncn1 [Example 86]"
measurement = "> 5.52"

[[record]]
compound = "CC(C)COc1cc(N2CCN(C(=O)c3csc(C(C)C)n3)CC2)ncn1 [Example 233]"
measurement = "> 5.52"

[[record]]
compound = "Cc1ccc(C(=O)N2CCN(c3cc(OC4CCC4)ncn3)CC2)cc1F [Example 16]"
measurement = "> 5.52"

[[record]]
compound = "Cc1c(C(=O)N2CCN(c3cc(OCC(C)C)ncn3)CC2)cnn1-c1ccc(F)cc1 [Example 169]"
measurement = "> 5.52"


Continue with the next compound.
Give the reported pIC50 for O=C(CCOc1ccc(F)cc1)N1CCN(c2cc(OCC(F)(F)F)ncn2)CC1 [Example 139] (system: human NaV1.3 (Homo sapiens)).
> 5.52
